study-target: Abl (h) (Homo sapiens, UniProt P00519)
Sequence (P00519 whole entry): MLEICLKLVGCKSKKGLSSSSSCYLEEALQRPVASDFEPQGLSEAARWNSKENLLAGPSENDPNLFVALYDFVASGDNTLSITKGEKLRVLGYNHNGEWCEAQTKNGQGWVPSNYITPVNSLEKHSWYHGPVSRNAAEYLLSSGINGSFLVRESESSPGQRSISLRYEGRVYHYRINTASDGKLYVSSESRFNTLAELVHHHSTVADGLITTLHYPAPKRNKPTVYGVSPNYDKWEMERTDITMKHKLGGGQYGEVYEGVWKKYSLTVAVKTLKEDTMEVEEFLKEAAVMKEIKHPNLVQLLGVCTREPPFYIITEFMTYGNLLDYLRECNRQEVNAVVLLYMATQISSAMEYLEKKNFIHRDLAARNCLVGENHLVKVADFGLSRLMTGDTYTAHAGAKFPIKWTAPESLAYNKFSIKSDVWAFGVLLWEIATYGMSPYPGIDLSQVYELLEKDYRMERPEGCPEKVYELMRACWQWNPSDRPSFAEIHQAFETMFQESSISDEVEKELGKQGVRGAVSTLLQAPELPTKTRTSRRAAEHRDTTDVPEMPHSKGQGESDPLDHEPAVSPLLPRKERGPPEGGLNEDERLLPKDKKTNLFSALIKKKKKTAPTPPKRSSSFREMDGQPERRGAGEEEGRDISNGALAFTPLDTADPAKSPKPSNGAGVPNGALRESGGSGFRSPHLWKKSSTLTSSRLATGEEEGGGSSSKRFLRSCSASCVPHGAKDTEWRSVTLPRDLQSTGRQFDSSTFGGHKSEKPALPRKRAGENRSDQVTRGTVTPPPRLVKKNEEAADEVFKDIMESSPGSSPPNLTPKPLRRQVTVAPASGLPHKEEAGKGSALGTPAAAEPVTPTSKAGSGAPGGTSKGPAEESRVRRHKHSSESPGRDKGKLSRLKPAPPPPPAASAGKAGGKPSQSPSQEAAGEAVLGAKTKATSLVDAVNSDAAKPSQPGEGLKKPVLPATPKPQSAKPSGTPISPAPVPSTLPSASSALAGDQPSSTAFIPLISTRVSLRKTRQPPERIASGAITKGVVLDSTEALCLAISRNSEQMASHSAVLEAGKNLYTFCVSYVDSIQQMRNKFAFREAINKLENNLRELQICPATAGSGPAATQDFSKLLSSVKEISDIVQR
assay-comment: Abl human kinase assay (glass-fiber filter)
Format: biochemical
test-conditions: test concentration of 10^−6M; read-out: C1 score (inhibition of Abl human)
quantity-kind: inhibition at 1 µM

Worked cases, answers included:
1. O=C1NCCCCCCNC(=O)c2cccc(c2)Nc2cc(ncn2)Nc2cccc1c2 [Compound 8] | 10 to 30%
2. O=C1NCc2cccc(c2)Nc2ccnc(n2)Nc2cccc1c2 [Compound 24] | 30 to 60%
3. N#Cc1cnc2nc1Nc1cccc(c1)OCC(=O)NCCOc1cccc(c1)N2 [Compound 27] | 10 to 30%

// returns reported inhibition at 1 µM for input COc1ccc2cc1OCCCNC(=O)C(C)(C)NC(=O)Cc1ccc(Cl)cc1Nc1cc(ncn1)N2 [Compound 105] > 80%

====

C10 score (inhibition of Lyn human) reference
study-target: Lyn (h) (Homo sapiens)
Sequence (P07948 whole entry): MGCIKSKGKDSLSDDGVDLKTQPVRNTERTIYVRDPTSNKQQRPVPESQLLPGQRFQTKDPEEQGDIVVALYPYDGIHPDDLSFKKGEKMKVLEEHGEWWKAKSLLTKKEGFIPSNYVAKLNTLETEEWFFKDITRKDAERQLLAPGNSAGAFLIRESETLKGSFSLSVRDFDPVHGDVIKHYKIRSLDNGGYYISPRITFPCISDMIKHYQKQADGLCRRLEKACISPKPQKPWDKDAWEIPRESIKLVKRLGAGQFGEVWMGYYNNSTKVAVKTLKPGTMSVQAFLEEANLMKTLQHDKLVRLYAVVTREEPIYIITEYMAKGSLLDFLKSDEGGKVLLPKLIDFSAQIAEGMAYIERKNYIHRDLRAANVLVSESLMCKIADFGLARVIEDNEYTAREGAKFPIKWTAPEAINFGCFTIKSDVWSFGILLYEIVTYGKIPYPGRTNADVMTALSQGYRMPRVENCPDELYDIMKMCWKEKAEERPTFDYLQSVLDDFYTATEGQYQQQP
assay-comment: Lyn human kinase assay (glass-fiber filter)
Format: biochemical
test-conditions: test concentration of 10^−6M

I am curious: what C10 score (inhibition of Lyn human) value has been reported for `COc1ccc2cc1OCCCNC(=O)[C@H](CC(C)C)NC(=O)Cc1ccc(Cl)cc1Nc1cc(ncn1)N2` ? 4 (Score 4=>80% inhibition)

====

Reported inhibition at 1 µM values are given for each entry in this list.
study-target: EGFR (h) (Homo sapiens, UniProt P00533)
Sequence (P00533 25-1210): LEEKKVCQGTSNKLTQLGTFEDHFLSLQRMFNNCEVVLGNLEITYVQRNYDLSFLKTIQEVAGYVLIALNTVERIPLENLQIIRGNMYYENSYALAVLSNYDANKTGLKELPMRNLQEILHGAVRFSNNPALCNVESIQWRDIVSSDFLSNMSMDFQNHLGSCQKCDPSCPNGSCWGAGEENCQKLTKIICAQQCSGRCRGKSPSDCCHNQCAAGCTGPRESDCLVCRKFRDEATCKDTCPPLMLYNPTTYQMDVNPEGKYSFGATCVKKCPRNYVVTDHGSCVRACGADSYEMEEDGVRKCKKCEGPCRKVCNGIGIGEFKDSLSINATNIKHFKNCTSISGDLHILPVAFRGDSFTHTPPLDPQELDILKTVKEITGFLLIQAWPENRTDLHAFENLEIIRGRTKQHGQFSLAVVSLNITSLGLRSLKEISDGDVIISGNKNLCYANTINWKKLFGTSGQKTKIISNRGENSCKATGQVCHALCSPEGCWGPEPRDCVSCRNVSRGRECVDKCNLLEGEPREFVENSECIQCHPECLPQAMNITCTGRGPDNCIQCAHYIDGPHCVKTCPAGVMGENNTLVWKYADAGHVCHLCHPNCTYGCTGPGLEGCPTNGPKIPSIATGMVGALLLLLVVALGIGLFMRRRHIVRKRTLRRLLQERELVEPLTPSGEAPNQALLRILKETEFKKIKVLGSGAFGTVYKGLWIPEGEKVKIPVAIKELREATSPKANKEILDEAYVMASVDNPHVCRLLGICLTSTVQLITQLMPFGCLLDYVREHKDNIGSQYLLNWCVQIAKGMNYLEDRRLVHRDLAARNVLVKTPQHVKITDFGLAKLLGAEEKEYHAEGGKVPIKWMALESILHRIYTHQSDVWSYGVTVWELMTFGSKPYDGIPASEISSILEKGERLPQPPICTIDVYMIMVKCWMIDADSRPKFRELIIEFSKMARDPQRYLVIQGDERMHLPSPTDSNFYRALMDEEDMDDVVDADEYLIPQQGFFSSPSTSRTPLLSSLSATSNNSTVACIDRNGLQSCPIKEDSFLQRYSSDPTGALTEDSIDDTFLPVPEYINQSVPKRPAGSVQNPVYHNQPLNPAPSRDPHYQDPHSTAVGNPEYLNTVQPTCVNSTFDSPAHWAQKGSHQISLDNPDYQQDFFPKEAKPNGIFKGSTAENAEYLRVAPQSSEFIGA
assay-comment: EGFR human kinase assay (glass-fiber filter)
Type: biochemical
test-conditions: test concentration of 10^−6M; read-out: C4 score (inhibition of EGFR human)

Some solved cases for reference:
1. COc1ccc2cc1OCCNC(=O)CNC(=O)Cc1ccc(Cl)cc1Nc1cc(ncn1)N2 [Compound 103] | > 80%
2. COc1ccc2cc1OCCCNC(=O)C(C)(C)NC(=O)Cc1ccc(Cl)cc1Nc1cc(ncn1)N2 [Compound 105] | > 80%
3. O=C1NCCCCCCNC(=O)c2cccc(c2)Nc2cc(ncn2)Nc2cccc1c2 [Compound 8] | 10 to 30%
4. N#Cc1cnc2nc1Nc1cccc(c1)OCCNC(=O)c1cccc(c1)N2 [Compound 20] | 10 to 30%
5. O=C1CCc2cccc(c2)Nc2cc(ncn2)Nc2cccc(c2)CN2CCN1CC2 [Compound 43] | 30 to 60%
6. COc1ccc2cc1OCCCNCCOc1ccc(Cl)cc1Nc1cc(ncn1)N2 [Compound 13] | > 80%

What does the record list as inhibition at 1 µM for N#Cc1cnc2nc1Nc1cccc(c1)OCC(=O)NCCCOc1cccc(c1)N2 [Compound 25] ? 10 to 30%

I'd like to know its inhibition at 1 µM. The molecule in question is N#Cc1cnc2nc1Nc1cccc(c1)OCC(=O)NCCOc1cccc(c1)N2 [Compound 27] 10 to 30%

====

study-target: UniProt:P12931
Sequence (P12931 whole entry): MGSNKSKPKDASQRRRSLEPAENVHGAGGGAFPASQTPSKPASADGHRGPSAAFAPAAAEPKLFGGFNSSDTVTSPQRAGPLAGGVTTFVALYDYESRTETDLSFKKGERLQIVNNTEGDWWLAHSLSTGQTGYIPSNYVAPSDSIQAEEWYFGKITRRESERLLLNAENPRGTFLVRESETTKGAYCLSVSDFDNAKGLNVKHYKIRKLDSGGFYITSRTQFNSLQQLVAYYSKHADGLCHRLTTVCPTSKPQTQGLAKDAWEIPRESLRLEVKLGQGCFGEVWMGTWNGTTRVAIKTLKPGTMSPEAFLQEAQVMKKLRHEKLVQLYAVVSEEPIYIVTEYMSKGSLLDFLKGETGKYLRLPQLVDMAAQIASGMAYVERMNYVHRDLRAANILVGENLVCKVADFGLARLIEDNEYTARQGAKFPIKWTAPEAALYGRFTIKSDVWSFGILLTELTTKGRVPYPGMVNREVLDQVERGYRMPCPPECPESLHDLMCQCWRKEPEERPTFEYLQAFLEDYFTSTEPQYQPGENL
assay-comment: cSRC human kinase assay (glass-fiber filter)
Format: biochemical
test-conditions: test concentration of 10^−6M
Recorded C3 score (inhibition of cSRC human) by entry

Record excerpt, results attached:
1) COc1ccc2cc1OCCCCCCOc1ccc(Br)cc1Nc1cc(ncn1)N2 [Compound 36] | 1 (Score 1=10-30% inhibition)
2) COc1ccc2cc1OCCNC(=O)[C@@H]1CCCN1Cc1cc(F)c(Cl)cc1Nc1nc(ncc1C#N)N2 [Compound 31] | 2 (Score 2=30-60% inhibition)

Now for another entry.
Data request, read-out C3 score (inhibition of cSRC human), for Cl.Cl.O=C1CNC(=O)Cc2ccc(Cl)cc2Nc2cc(ncn2)Nc2ccc(OCCCN3CCOCC3)c(c2)OCCN1 [Compound 107] 4 (Score 4=>80% inhibition)

Where do the numbers come from? From patent US8148388B2.
